# Tested on: MDA-MB-435
# experimental.protocol: NCI tumour cell line growth inhibition, 48 h
The source made the active and inactive calls. Rule as the data show it: active = GI50 up to about 1.1 µM and inactive = higher.
Please reply with one of these outcomes: t = active, f = inactive

Sample answers from the record:
{"compound": "CC(C)(C)OC(=O)n1c(-c2ccccc2F)cc(=O)c2cc3c(cc21)OCO3", "category": "t"}
{"compound": "c1n[nH]cc1C12C3C4C5C3C1C5C42 (stereo unspecified)", "category": "f"}
{"compound": "N#Cc1c(N)nc2[nH]nc(N)c2c1-c1ccccc1", "category": "f"}

[ask] # outcome recorded in this test, key = CC(C)=CCC[C@H](C)[C@H]1CC[C@@H](C)c2cc(O)c(C)cc21
[reply] f

[ask] Would you kindly repeat that for CCOC(=O)C(=Cc1ccccc1Cl)C(=O)OCC ?
[reply] f

[ask] What about C#CC(O)/C=C/CCCCCCC#CC/C=C\CC#CCCCCCC/C=C/C(O)C#C (stereo unspecified) ?
[reply] f
